compound | melting point
C[C@@H](NS(=O)(=O)c1ccc(-c2c(C#N)c3cc(Cl)ncc3n2C2CCC2)cc1)C(F)(F)F [Cpd 105] | 248 to 250 °C
COc1cnc2c(c1)c(C#N)c(-c1ccc(S(=O)(=O)NC3CC3)cn1)n2C1CCC1 [Cpd 310] | 161 to 162 °C
Cc1cnc2c(c1)c(C#N)c(-c1ccc(S(=O)(=O)N[C@@H](C)C(F)(F)F)cn1)n2CC1CC1 [Cpd 494] | 198 to 204 °C
Cc1cnc2c(c1)c(C#N)c(-c1ccc(S(=O)(=O)N[C@@H](C)C(F)(F)F)cc1)n2C1CCCC1 [Cpd 263] | 191 to 196 °C
C[C@H](NS(=O)(=O)c1ccc(-c2c(C#N)c3cc(C(F)(F)F)cnc3n2C2CC2)nc1)C(F)(F)F [Cpd 360] | 194 to 196 °C
Cc1cnc2c(c1)c(C#N)c(-c1ccc(NC(=O)NC(C)C)cc1)n2C1CCC1 [Cpd 266] | 224 to 231 °C
Cc1nc(-c2c(C#N)c3cc(C(F)(F)F)cnc3n2C2CCC2)ccc1S(=O)(=O)N[C@@H](C)C(F)(F)F [Cpd 338] | 162 to 165 °C
Cc1cnc2c(C#N)c(-c3ccc(S(=O)(=O)N[C@H](C)C(F)(F)F)cc3)n(C3CCC3)c2c1 [Cpd 217] | 252 to 253 °C
CCc1cnc2c(c1)c(C#N)c(-c1ccc(S(=O)(=O)NC3CCC3)cn1)n2C1CCC1 [Cpd 194] | 168 to 177 °C
C[C@H](NS(=O)(=O)c1ccc(-c2c(C#N)c3cc(C(F)(F)F)cnc3n2C2CCC2)nc1)C(F)(F)F [Cpd 227] | 183 to 185 °C
CC(C)(NS(=O)(=O)c1ccc(-c2c(C(N)=O)c3cc(Cl)cnc3n2C2CCC2)cc1)C(F)(F)F [Cpd 329] | 263 to 265 °C
N#Cc1c(-c2ccc(S(=O)(=O)NC3(C(F)(F)F)CC3)cc2)n(C2CCCCC2)c2ncc(C(F)(F)F)cc12 [Cpd 420] | 195 to 197 °C
C[C@H](NS(=O)(=O)c1ccc(-c2c(C#N)c3cc(N(C)C)cnc3n2C2CCC2)nc1)C(F)(F)F [Cpd 497] | 183 to 185 °C
CCc1cnc2c(c1)c(C#N)c(-c1ccc(S(=O)(=O)NC(C)C)nc1)n2C1CCC1 [Cpd 195] | 195 to 202 °C
CCc1cnc2c(c1)c(C#N)c(-c1ccc(S(=O)(=O)NC(C)(C)C)cc1)n2C1CCC1 [Cpd 185] | 190 to 196 °C
Cc1cnc2c(c1)c(C#N)c(-c1ccc(S(=O)(=O)NC3(C)CC3)cn1)n2C1CCC1 [Cpd 76] | 188 to 189 °C
